Measured pEC50, listed per entry for reference.
Biological target: T1, human CD40 on cells (human, UniProt P25942 21-277)
T1 construct: whole, on cells; The cell line used is named in each row's assay; also called hCD40; TNFRSF5
T1 sequence (P25942 21-277): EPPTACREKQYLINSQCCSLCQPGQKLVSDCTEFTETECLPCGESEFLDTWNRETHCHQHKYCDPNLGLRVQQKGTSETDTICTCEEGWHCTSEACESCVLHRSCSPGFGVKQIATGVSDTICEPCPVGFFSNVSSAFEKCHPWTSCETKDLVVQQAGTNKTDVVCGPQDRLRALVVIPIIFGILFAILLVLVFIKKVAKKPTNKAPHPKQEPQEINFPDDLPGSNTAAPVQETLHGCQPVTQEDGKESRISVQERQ
Experiment: FACS, Raji cells
Text: Flow cytometry (FACS) was used to detect the binding ability of the CD40 antibody to cells, such as, CHO-K1/hCD40 highly expressing human CD40 (constructed by Beijing Kyinno Biotechnology), CHO-K1/cyCD40 highly expressing cynomolgus monkey CD40 (constructed by Beijing Kyinno Biotechnology) and lymphoma cell highly expressing human CD40, Raji (ATCC, #CCL-86). […]
Just so you know, pEC50 here is -log10 of the concentration in molar units; reply with that number alone.

Binder	pEC50
PR006512 (antibody, human IgG1, kappa, V domains shown, PR003379 variant L:S93T; human IgG1 L234A, L235A, G237A) VH: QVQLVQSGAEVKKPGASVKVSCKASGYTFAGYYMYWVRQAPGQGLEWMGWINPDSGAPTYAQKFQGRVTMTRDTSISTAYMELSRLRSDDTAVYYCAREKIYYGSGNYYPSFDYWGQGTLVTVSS VL: DIQLTQSPSFLSASVGDRVTITCRASQGISSYLAWYQQKPGKAPKLLIYAASTLQSGVPSRFSGSGSGTEFTLTISSLQPEDFATYYCQQLNTYPWTFGQGTKVEIKR	9.37
PR006503 (antibody, human IgG1, kappa, V domains shown, PR003379 variant L:N92G; human IgG1 L234A, L235A, G237A) VH: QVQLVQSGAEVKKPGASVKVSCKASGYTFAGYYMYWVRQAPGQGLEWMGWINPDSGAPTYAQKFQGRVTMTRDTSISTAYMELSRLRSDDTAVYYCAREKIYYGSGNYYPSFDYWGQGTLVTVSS VL: DIQLTQSPSFLSASVGDRVTITCRASQGISSYLAWYQQKPGKAPKLLIYAASTLQSGVPSRFSGSGSGTEFTLTISSLQPEDFATYYCQQLGSYPWTFGQGTKVEIKR	9.48
PR006505 (antibody, human IgG1, kappa, V domains shown, PR003379 variant L:S93I; human IgG1 L234A, L235A, G237A) VH: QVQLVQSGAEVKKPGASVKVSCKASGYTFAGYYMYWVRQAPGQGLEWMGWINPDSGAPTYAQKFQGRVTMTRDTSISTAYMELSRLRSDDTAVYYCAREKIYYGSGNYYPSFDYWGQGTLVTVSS VL: DIQLTQSPSFLSASVGDRVTITCRASQGISSYLAWYQQKPGKAPKLLIYAASTLQSGVPSRFSGSGSGTEFTLTISSLQPEDFATYYCQQLNIYPWTFGQGTKVEIKR	9.47

Looking up PR006500 (antibody, human IgG1, kappa, V domains shown, PR003379 variant L:N92M; human IgG1 L234A, L235A, G237A) VH: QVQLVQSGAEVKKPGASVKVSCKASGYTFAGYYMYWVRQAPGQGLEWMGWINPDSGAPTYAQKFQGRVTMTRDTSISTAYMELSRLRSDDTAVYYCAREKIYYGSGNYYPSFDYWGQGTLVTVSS VL: DIQLTQSPSFLSASVGDRVTITCRASQGISSYLAWYQQKPGKAPKLLIYAASTLQSGVPSRFSGSGSGTEFTLTISSLQPEDFATYYCQQLMSYPWTFGQGTKVEIKR , I see its pEC50 listed as 9.45

Looking up PR006502 (antibody, human IgG1, kappa, V domains shown, PR003379 variant L:N92D; human IgG1 L234A, L235A, G237A) VH: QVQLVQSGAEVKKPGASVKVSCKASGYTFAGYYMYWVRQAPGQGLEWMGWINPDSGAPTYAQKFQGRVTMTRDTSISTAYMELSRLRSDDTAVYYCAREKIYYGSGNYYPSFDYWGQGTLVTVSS VL: DIQLTQSPSFLSASVGDRVTITCRASQGISSYLAWYQQKPGKAPKLLIYAASTLQSGVPSRFSGSGSGTEFTLTISSLQPEDFATYYCQQLDSYPWTFGQGTKVEIKR , I see its pEC50 listed as 9.54
